Compiled pKi measurements on Retinoic acid receptor alpha (Homo sapiens) taken from the literature.
Sequence (P10276 whole entry): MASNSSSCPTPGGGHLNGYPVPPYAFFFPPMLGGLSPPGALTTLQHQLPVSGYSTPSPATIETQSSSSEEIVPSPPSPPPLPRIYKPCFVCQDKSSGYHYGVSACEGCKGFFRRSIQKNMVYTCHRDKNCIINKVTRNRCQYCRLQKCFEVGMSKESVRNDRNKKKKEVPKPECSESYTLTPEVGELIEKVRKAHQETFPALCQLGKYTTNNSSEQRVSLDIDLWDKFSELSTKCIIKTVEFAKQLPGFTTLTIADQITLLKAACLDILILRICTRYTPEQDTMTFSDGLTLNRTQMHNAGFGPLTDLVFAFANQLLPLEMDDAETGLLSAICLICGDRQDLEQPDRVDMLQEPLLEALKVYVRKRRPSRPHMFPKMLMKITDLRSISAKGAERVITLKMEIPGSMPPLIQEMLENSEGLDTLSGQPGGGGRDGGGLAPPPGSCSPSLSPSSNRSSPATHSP
pKi: −log10 of the molar value.

Please review the entries below; each comes with its answer.
> print(dat)
                                   compound  value.kind  result
1  CCCOc1cc2c(cc1C1CCCc3oc(/C=C/C(=O)O)cc31)C(C)(C)CCC2(C)C (centres undefined)         pKi  < 6.00
2  CCCCOc1c(-c2cccc3cc(/C(C)=C(\F)C(=O)O)oc23)cc(C(C)C)cc1C(C)C         pKi  < 5.00
3  CC1(C)CCC(C)(C)c2cc(C3CCCc4sc(CCC(=O)O)cc43)ccc21 (centres undefined)         pKi  < 6.00
4  C=C1C[C@H](c2ccc3c(c2)C(C)(C)CCC3(C)C)[C@@H](/C=C/C(C)=C/C(=O)O)C1         pKi  < 6.00
5  CC1(C)CCC(C)(C)c2cc3cc(-c4ccc(C(=O)O)cc4)ccc3cc21         pKi    8.28
6  COc1ccc(-c2ccc3cc(C(=O)O)ccc3c2)cc1C(C)(C)C         pKi    5.19

Report its pKi with Retinoic acid receptor alpha (Homo sapiens) as the test system: "CC(/C=C/[C@@H]1CCC[C@@H]1c1ccc2c(c1)C(C)(C)CCC2(C)C)=C\C(=O)O"
< 6.00

Look up Retinoic acid receptor alpha (Homo sapiens) data: pKi of "CC(C)(C)c1cc(-c2ccc3cc(C(=O)O)ccc3c2)ccc1O" , then report it.
< 5.00

Look up Retinoic acid receptor alpha (Homo sapiens) data: pKi of "COc1ccc(-c2ccc3cc(C(=O)O)ccc3c2)cc1C1(C)CCCCC1" , then report it.
5.95
